assay endpoint: melting point

What does the record list as melting point for CN(C)CCCCC1CCCN(CCNC(=O)N2c3ccccc3C(=O)Nc3cccnc32)C1 (stereo not given) ?
119 to 120 °C

Next:
What does the record list as melting point for COc1ccc(CC2SC(=O)NC2=O)cc1C(=O)NCc1ccc([N+](=O)[O-])cc1 (stereo not given) ?
236 to 238 °C

What does the record list as melting point for "CCCCOC(CCN)(c1ccccc1)c1ccccc1" ?
50 to 54 °C

What does the record list as melting point for "O=C(O)CCCc1ccc(-c2ccccc2F)cc1" ?
65 to 66 °C

----------
// reported melting point for each item listed

What does the record list as melting point for C=CCNC(=O)C1CCc2cc(Cl)ccc2O1 (stereo unspecified) ?
112 to 114 °C

What does the record list as melting point for C=C(C)C1CCC2C3C=CC4=CC(=O)CCC4(C)C3C(O)CC12C (stereo unspecified) ?
153 to 155 °C

What does the record list as melting point for "Fc1ccc(-c2cc(C(F)(F)F)n3cnc(-c4ccncc4)c3n2)cc1Cl" ?
266 °C

What does the record list as melting point for "C[C@](N)(Cc1ccccc1)C(=O)O" ?
137 to 138 °C

Next:
What does the record list as melting point for "N#Cc1ccc2[nH]cc(CCNC(=O)OCc3ccccc3)c2c1" ?
128 to 129 °C

What does the record list as melting point for "CCCCCCCCCCCCOc1ccc(C(=O)c2ccc(Sc3ccccc3)cc2)c(O)c1" ?
59 to 60 °C

----------
// reported melting point for each item listed

What does the record list as melting point for CCOC(=O)C(Cc1cc(C)cc(OC(F)(F)C(F)F)c1)C(=O)c1ccc(F)cc1 (stereo unspecified) ?
56 to 57 °C

What does the record list as melting point for N#Cc1cccc(NC(C(=O)O)c2ccccc2)c1 (stereo unspecified) ?
159 to 162 °C

What does the record list as melting point for "O=C(Cl)N1c2ccccc2C=Cc2ccccc21" ?
145 to 150 °C

What does the record list as melting point for CC(=O)Nc1cc(Cl)c(C(C#N)c2ccc(Cl)c(C(F)(F)F)c2)c(Cl)c1 (stereo unspecified) ?
172 °C

What does the record list as melting point for COc1ncc(Br)cc1C(O)C=Cc1ccc(Cl)c(Cl)c1 (stereo unspecified) ?
149 to 150 °C

Next:
What does the record list as melting point for "COc1ccc2c(c1)C(c1ccc(N)cc1)=NN=C(C)C2" ?
136 to 138 °C

What does the record list as melting point for "CCOC(=O)c1ncc2[nH]c3ccc(I)cc3c2n1" ?
264 to 266 °C

What does the record list as melting point for "COc1cc2onc(C3CCN(CCCn4c(=O)[nH]c5ccccc54)CC3)c2cc1OC" ?
147 to 149 °C

What does the record list as melting point for "COc1ccc(C=O)c(Br)c1" ?
73 to 74 °C

What does the record list as melting point for CC(OCc1cc2nc(Cl)ccc2n1S(=O)(=O)c1ccc2nc(N)sc2c1)C(=O)O (stereo unspecified) ?
218 to 220 °C

What does the record list as melting point for "O=C1Cc2cc(NC(=O)C(=O)N3CCC(Cc4ccc(F)cc4)CC3)ccc2N1" ?
152 to 154 °C

What does the record list as melting point for "CNC(=NC(=O)OC)N(C)C" ?
80 to 85 °C

What does the record list as melting point for CS(=O)c1ccc(CSc2nnc(-c3ccc4c(c3)CCO4)o2)cc1C(F)(F)F (stereo unspecified) ?
177 to 178 °C

What does the record list as melting point for COc1ccc(S(=O)(=O)N2Cc3ccccc3N(C(=O)COc3ccccc3)CC2C(=O)O)cc1 (stereo unspecified) ?
188 to 191 °C

What does the record list as melting point for "Cn1c(=O)c2c(ncn2CCCN2CC=C(c3c[nH]c4ccc(Br)cc34)CC2)n(C)c1=O" ?
195 °C

What does the record list as melting point for "COC(=O)COc1cc(C)c(SCc2sc(-c3ccc(C(F)(F)F)cc3)nc2C)c(C)c1" ?
113 °C

What does the record list as melting point for COc1ccc(C2=NN(Cc3ccccc3)C(=O)[C@H]3CCCC[C@@H]23)cc1OC1CCCC1 (relative stereo) ?
91 to 92 °C

What does the record list as melting point for "NN(Cc1ccc(Cl)cc1)c1ccc(OCc2ccc3ccccc3n2)cc1" ?
130 °C

What does the record list as melting point for "N[C@H]1CC[C@H](Nc2cc(C(F)(F)F)nc3c(C(F)(F)F)cccc23)CC1" ?
173 °C

What does the record list as melting point for "CC(=O)Nc1nc2ccc(S(=O)(=O)n3c(COC(C)(C)C(=O)O)cc4cc(C(F)(F)F)ccc43)cc2s1" ?
144 to 146 °C
